assayed target: SpRvs167
method description: SPOT peptide array binding signal intensity (averaged, normalized) (arbitrary units (background-subtracted, floor 0; scale differs between SH3 domains)); higher = stronger binding of the SH3 domain to the peptide
measure name: SPOT peptide array binding signal intensity
A bare number is all that is needed in reply.

As a guide, the following entries are already answered.
{"columns": ["binder", "value"],
 "data": [
  ["ITHRLRISIPGITGR", 115],
  ["VKPRQLFPIPLNKVD", 10],
  ["AVPPPPPPPPLPESL", 64.7]
]}

[Q] Could you share which SPOT peptide array binding signal intensity value was measured for GATNNAPTLPKRKNP ?
[A] 1270

[Q] Could you share which SPOT peptide array binding signal intensity value was measured for STPQTMRQAPKRPDA ?
[A] 25.8

[Q] Could you share which SPOT peptide array binding signal intensity value was measured for VSKLRSPNTPRRLRK ?
[A] 195

[Q] Could you share which SPOT peptide array binding signal intensity value was measured for HKVLRPFLLRRLKKD ?
[A] 0.333

[Q] Could you share which SPOT peptide array binding signal intensity value was measured for KKEKKPPKIPKKVYT ?
[A] 8.33

[Q] Could you share which SPOT peptide array binding signal intensity value was measured for KTRLRPAFIQQLWSS ?
[A] 6.67

[Q] Could you share which SPOT peptide array binding signal intensity value was measured for MAMRPIPPLPTESEY ?
[A] 1130

[Q] Could you share which SPOT peptide array binding signal intensity value was measured for VRVKKRPLIRPLNSS ?
[A] 3.67

[Q] Could you share which SPOT peptide array binding signal intensity value was measured for DRIRMFIRFPKFLLE ?
[A] 40.3

[Q] Could you share which SPOT peptide array binding signal intensity value was measured for RAPPPVPKKPSSRIA ?
[A] 1860

[Q] Could you share which SPOT peptide array binding signal intensity value was measured for VYTRTAFQIPGDDKI ?
[A] 0.333
